Where do the numbers come from? From PubChem BioAssay (EPA / NIEHS).

Target: Nuclear receptor subfamily 1 group I member 2 (Homo sapiens)
Experiment: ATG_PXR_TRANS: Attagene TRANS-FACTORIAL HepG2 Assay for human Pregnane X Receptor (PXR) (AID 2283008)
Results filed as inconclusive are left out. Active and inactive are the calls of the source. How the source made its calls: active means hit-call score of the fitted dose curve at least 0.9, where 1 is the maximum; inconclusive means response in the unintended direction; inactive means score below 0.9.
Write down the outcome that applies. Available outcomes: y for active, n for inactive

Task: How was "COP(=S)(OC)Oc1cc(Cl)c(I)cc1Cl" classified in this test?
Output: y

Task: "c1ccc2sc(SNC3CCCCC3)nc2c1" ?
Output: y

Task: "Clc1cnc(Oc2ccc(Oc3ncc(Cl)cc3Cl)cc2)c(Cl)c1" ?
Output: y

Task: "CCOP(=S)(OCC)OP(=S)(OCC)OCC" ?
Output: y

Task: "O=c1[nH]c(=O)n(Cl)c(=O)n1Cl" ?
Output: n

Task: CC(C)[C@H](C(=O)OC(C#N)c1cccc(Oc2ccccc2)c1)c1ccc(OC(F)F)cc1 (stereo partly drawn) ?
Output: y

Task: "O=C(N[C@H]1CN2CCC1CC2)c1ccc2c(c1)OCCO2" ?
Output: n

Task: "CN(C)c1ccc(N=O)cc1" ?
Output: n

====

Assay: BSK_LPS_PGE2: BioMAP Diversity Plus: LPS Assay for Prostaglandin E2 (PGE2) Biomarker Activity (AID 2283082)
Conditions: primary human HUVEC with PBMC; actives raise or lower the signal
Activity calls are given as the source filed them. Rule for the calls: active = hit-call score of the fitted dose curve at least 0.9, where 1 is the maximum; inactive = score below 0.9.
Write down the outcome that applies. Available outcomes: active, inactive

Here's what some known entries look like.
O=C(CCl)NCO :: inactive
c1ccc2sc(SNC3CCCCC3)nc2c1 :: inactive
O=c1oc2ccccc2c(O)c1C(CC(O)c1ccc(-c2ccc(Br)cc2)cc1)c1ccccc1 (centres undefined) :: inactive

We next turn to a different compound, shown below.
Task: How was "CCOC(=O)CC(=O)CCl" classified in this test?
Output: active

====

Read-out: Decorin, DCN (gene 1634)
Assay: BSK_MyoF_Decorin: BioMAP Diversity Plus: MyoF Assay for Decorin Biomarker Activity (AID 2284265)
Details: primary human lung fibroblasts
Active and inactive are the calls of the source. How the source made its calls: active means hit-call score of the fitted dose curve at least 0.9, where 1 is the maximum; inactive means score below 0.9.
recorded_metric: AC50

CC1(C)[C@H](C(=O)O[C@H](C#N)c2cccc(Oc3ccccc3)c2)[C@@H]1/C=C(\Cl)C(F)(F)F :: inactive
COCC(=O)N(c1c(C)cccc1C)[C@H](C)C(=O)OC :: inactive
CC(C)(COCC1CO1)COCC1CO1 (centres undefined) :: inactive
[Cl][Sn]([c]1ccccc1)([c]1ccccc1)[c]1ccccc1 :: 167 nM (active)

====

Read-out: Macrophage colony-stimulating factor (MCSF), CSF1 (gene 1435)
Assay: BSK_LPS_MCSF: BioMAP Diversity Plus: LPS Assay for Macrophage colony-stimulating factor (MCSF) Biomarker Activity (AID 2283083)
Conditions: primary human HUVEC with PBMC; actives raise or lower the signal
Calls of active or inactive are those of the source. The calls were made as follows: active = hit-call score of the fitted dose curve at least 0.9, where 1 is the maximum; inactive = score below 0.9.
recorded_metric: AC50

Cc1ccc2nc3sc(=O)sc3nc2c1 :: inactive
Oc1c(Br)cc(Br)cc1Br :: inactive
CC(C)(C)c1cc([N+](=O)[O-])cc(C(C)(C)C)c1O :: 0.452 µM (active)
CCCCOC(=O)COC(=O)c1ccccc1C(=O)OCCCC :: inactive

Each compound below has a reported value. Please supply its AC50.
1. NC(=O)CCl
2. Cc1cc(C(C)(C)c2ccc(O)c(C)c2)ccc1O
3. Oc1ccc(Cc2ccc(O)cc2)cc1
4. [Cl][Sn]([c]1ccccc1)([c]1ccccc1)[c]1ccccc1
5. CCOC(=O)CCN(SN(C)C(=O)Oc1cccc2c1OC(C)(C)C2)C(C)C
6. OC(Cc1ccccc1Cl)(Cn1[nH]cnc1=S)C1(Cl)CC1 (stereo unspecified)
7. Oc1cccc(-c2ccccc2)c1
8. CC(C)N(C(=O)CCl)c1ccccc1

Output:
["inactive", "15.1 µM (active)", "inactive", "0.138 µM (active)", "inactive", "inactive", "inactive", "20 µM (active)"]

Each compound below has a reported value. Please supply its AC50.
1. Cc1ccc(OP(=O)(Oc2ccc(C)cc2C)Oc2ccc(C)cc2C)c(C)c1
2. CC(C)(COCC1CO1)COCC1CO1 (stereo unspecified)
3. O=[N+]([O-])c1cccc2ccccc12

Output:
1: 10.7 µM (active); 2: inactive; 3: inactive
